This collection of values is drawn from ChEMBL document CHEMBL1201862.

# Tested on: HOP-92
# TEST METHOD NOTES: NCI tumour cell line growth inhibition, 48 h
Calls of active or inactive are those of the source. Rule as the data show it: active = GI50 up to about 1.1 µM and inactive = higher.
PROPERTY LABEL: GI50

Some compounds with recorded GI50:
compound="CCCCC1Cc2ccccc2-c2nc3ccccc3n21 (configuration not stated)" result="16.4 µM (inactive)"
compound="Cc1ccc(O)c(C2=CC(c3cccc(Cl)c3)SC(=N)N2)c1 (configuration not stated)" result="10.8 µM (inactive)"
compound="COc1cc(C2C(Cl)C(=O)N2NC(=O)c2ccc(N)cc2)ccc1O (configuration not stated)" result="25.5 µM (inactive)"
compound=CC(=O)O[C@H]1/C(=C/c2ccncc2)C[C@H]2[C@@H]3CC=C4C[C@@H](N5CCCC5)CC[C@]4(C)[C@H]3CC[C@]12C result="4.24 µM (inactive)"

Inquiry: Tell me its GI50 given Oc1ccc2ccccc2c1/N=N/c1ccc(Br)cc1 as the entry.
Reply text: 35.3 µM (inactive)

Inquiry: Retrieve GI50 measured for Cc1nc2cn3c(c2c(=O)[nH]1)CCCCC3 and print it.
Reply text: > 100 µM (inactive)

Inquiry: Identify measured GI50 associated with CCCCc1ccc2[n+](c1)C(C(=O)OCC)=PC2 (configuration not stated)
Reply text: > 100 µM (inactive)
